src = PubChem BioAssay (NCI)

test system: OVCAR-3 ovarian; assay: NCI-60 one-dose screen, 48 h (100 = growth as untreated, 0 = no growth, -100 = all killed); details: 10 µM unless noted
About 83,000 compounds went through this panel and 20% of them were active in at least one assay; those are over-represented in the sample as a whole.
Classes by growth: small value = under 20%, mid value = from 20% up to 90%, large value = 90% and over

Please let me know in which category the item CCOC(=O)COc1c(OC)c(OC)cc2oc(-c3cccc(C(=O)Nc4ccc(Cl)cc4)c3)cc(=O)c12 belongs. mid value

Please let me know in which category the item O=c1cc(-c2ccccc2)oc2cc(OCCCC[P+](c3ccccc3)(c3ccccc3)c3ccccc3)cc(O)c12 belongs. small value

Please let me know in which category the item CSc1ccccc1NC(=O)c1ccc2nnn(/C(C#N)=C/c3ccccn3)c2c1 belongs. small value

Please let me know in which category the item O=C(CSc1nc2ccccc2c(=O)[nH]1)NCCN1CCCCC1 belongs. large value

Please let me know in which category the item Cn1cc(-c2cc3nc(-c4c[nH]c5ccc(Cl)cc45)cc(N)n3n2)c2ccccc21 belongs. small value

Please let me know in which category the item COc1cc2oc(-c3cccc(C(=O)Nc4ccc(Cl)cc4)c3)cc(=O)c2c(OCCNC(=O)[C@H](CCC(=O)OC(C)(C)C)NC(=O)OC(C)(C)C)c1OC belongs. large value

Please let me know in which category the item C(=C\c1cc(/C=C/c2ccccc2)c2ccccc2n1)/c1ccccc1 belongs. large value

Please let me know in which category the item CCCCCCCCc1ccc(C(=O)Nc2cccc(P(=O)(O)O)c2)cc1 belongs. large value

Please let me know in which category the item Clc1ccc(-c2ccc(OCCCN3CCN(c4ccncc4)CC3)cc2)cc1 belongs. mid value

Please let me know in which category the item O=c1oc2ccccc2cc1-c1csc(N=Nc2c(O)[nH]c3ccc(Cl)cc23)n1 belongs. large value

Please let me know in which category the item COc1ccc(Cc2nn(CC(=O)N/N=C/c3ccc(F)cc3)c(=O)c3c(C)noc23)cc1 belongs. mid value

Please let me know in which category the item COc1cccc(-c2c(C#N)c(-c3ccc(Cl)cc3)nc3n[nH]c(-c4ccc(Cl)cc4)c23)c1 belongs. mid value

Please let me know in which category the item COc1ccc(NC(=O)[C@@H](N)Cc2ccccc2)cc1C(=O)Nc1cccc(C2CC(=O)c3c(cc(OC)c(OC)c3OC)O2)c1 (some centres not stated) belongs. mid value

Please let me know in which category the item Cn1nc(C(F)(F)F)cc1-c1cc(Cl)c(COc2ccc(Cl)cc2)c(-c2ccc(Cl)c(C(F)(F)F)c2)c1O belongs. small value

Please let me know in which category the item COc1ccc(C(=O)/C=C/c2cccnc2)cc1S(N)(=O)=O belongs. small value
